# Tested on: P388 leukemia ip, CD2F1 mice, survival T/C
# experimental_protocol: NCI In Vivo Anticancer Drug Screen. Data for tumor model P388 Leukemia (intraperitoneal) in CD2F1 (CDF1) mice
# particulars: endpoint: median survival time; dose: 1.56 mg/kg/injection; schedule: Q01DX009 (ip); vehicle: water
Inconclusive results and toxic doses are left out. How the source made its calls: active means survival T/C of 150% or more; inactive means T/C below 125% in these data.
Classes to choose from: Yes = active, No = inactive

## Task Assay result, entry COc1cccc2c1C(=O)c1c(O)c3c(c(O)c1C2=O)C[C@@](O)(/C(C)=N/NC(=O)c1ccccc1)C[C@@H]3OC1CC(N(C)C)C(O)C(C)O1 (some centres undefined) — outcome?
## Result Yes

## Task Next: C[n+]1c(-c2cccc(OCCCCCCCCCCOc3cccc(-c4c5cc(N)ccc5c5ccc(N)cc5[n+]4C)c3)c2)c2cc(N)ccc2c2ccc(N)cc21
## Result Yes

## Task Next: COc1cccc2c1C(=O)c1c(O)c3c(c(O)c1C2=O)C[C@@](O)(c1csc(-c2ccccc2)n1)C[C@@H]3OC1CC(N)C(O)C(C)O1 (some centres undefined)
## Result Yes

Consider the record given below.
## Task Assay result, entry O=NNc1ncc(Cl)cc1Cl — outcome?
## Result No

----------
# Tested on: P388 leukemia ip, CD2F1 mice, survival T/C
# experimental_protocol: NCI In Vivo Anticancer Drug Screen. Data for tumor model P388 Leukemia (intraperitoneal) in CD2F1 (CDF1) mice
# particulars: endpoint: median survival time; dose: 200.0 mg/kg/injection; schedule: Q04DX002 (ip); vehicle: Klucel (hydroxypropylcellulose) (HPC); higher = longer survival
Inconclusive results and toxic doses are left out.
Recorded T/C for the following molecules

Look over these answered cases.
## Task Lab request: please report T/C under test system P388 leukemia ip, CD2F1 mice, survival T/C for CCc1nc(N)nc(N)c1-c1ccc(NC)c(N)c1
## Result 105 % of control

## Task Next: CC1(C)N[P+]2(Nc3ccccc3O2)OC1=O (stereo not drawn)
## Result 93 % of control

Now, please, on to the next molecule.
## Task Lab request: please report T/C under test system P388 leukemia ip, CD2F1 mice, survival T/C for CCOC(=O)c1cnc2cc3c(cc2c1Nc1ccccc1C(=O)OC)OCO3
## Result 97 % of control

----------
Recorded T/C for the following compounds
# System: P388 leukemia ip, CD2F1 mice, survival T/C
# experimental_protocol: NCI In Vivo Anticancer Drug Screen. Data for tumor model P388 Leukemia (intraperitoneal) in CD2F1 (CDF1) mice
# particulars: endpoint: median survival time; dose: 12.5 mg/kg/injection; schedule: Q04DX003 (ip); vehicle: saline; higher = longer survival
Inconclusive results and toxic doses are left out.

## Task Quick one: T/C for C1=[N+]2CCCC2Cc2ccc3ccccc3c21 (centres undefined) ?
## Result 100 % of control

## Task Next: C[CH2][Sn]1([CH2]C)[O]C2C(O)OC(CO)C(O)C2[O]1 (centres undefined)
## Result 116 % of control

## Task Next: CC1(C)N=C(N)N=C(N)N1c1ccc(OCCCOc2ccc(S(=O)(=O)F)cc2)c(Cl)c1
## Result 120 % of control

Further cases:
## Task Quick one: T/C for CS(=O)(=O)[O][Sn]([CH3])([CH3])[O]S(C)(=O)=O ?
## Result 109 % of control

----------
Recorded T/C for the following molecules
# Test system: P388 leukemia ip, CD2F1 mice, survival T/C
# experimental_protocol: NCI In Vivo Anticancer Drug Screen. Data for tumor model P388 Leukemia (intraperitoneal) in CD2F1 (CDF1) mice
# particulars: endpoint: median survival time; dose: 50.0 mg/kg/injection; schedule: Q01DX005 (ip); vehicle: saline; higher = longer survival
# Procedure: The antitumor activity of compounds was measured in mice bearing transplantable tumors. Survival or tumor size were measured and the results are expressed as the measurement made in the treated group (T) divided by the measurement made in the vehicle treated control group (C). The tumor model used in this assay is P388 Leukemia (intraperitoneal) in CD2F1 (CDF1) mice
Inconclusive results and toxic doses are left out.

Look over these answered cases.
## Task Lab request: please report T/C under test system P388 leukemia ip, CD2F1 mice, survival T/C for Cc1cc(NS(=O)(=O)c2ccc(N)cc2)no1
## Result 103 % of control

## Task Next: CC(=O)c1cc(C(O)C(O)C(O)C(O)CO)[nH]c1C (centres undefined)
## Result 108 % of control

## Task Next: CCN(CC)CCNc1ccc(C)c2sc3cc(O)ccc3c(=O)c12
## Result 107 % of control

Further cases:
## Task Lab request: please report T/C under test system P388 leukemia ip, CD2F1 mice, survival T/C for CC(C)Sc1ncn[nH]1
## Result 99 % of control

## Task Next: CCN(CC)CCCC(C)N(C)CC(C)CCC1=C(C)CCCC1(C)C (centres undefined)
## Result 104 % of control
